percentage of tested cells that had Streptavidin signals reference
Biological target: T1, human TNFR2 (expressed on cells) (human, UniProt P20333 23-461)
T1 construct: also called hTNFR2; human TNF Receptor 2
T1 sequence: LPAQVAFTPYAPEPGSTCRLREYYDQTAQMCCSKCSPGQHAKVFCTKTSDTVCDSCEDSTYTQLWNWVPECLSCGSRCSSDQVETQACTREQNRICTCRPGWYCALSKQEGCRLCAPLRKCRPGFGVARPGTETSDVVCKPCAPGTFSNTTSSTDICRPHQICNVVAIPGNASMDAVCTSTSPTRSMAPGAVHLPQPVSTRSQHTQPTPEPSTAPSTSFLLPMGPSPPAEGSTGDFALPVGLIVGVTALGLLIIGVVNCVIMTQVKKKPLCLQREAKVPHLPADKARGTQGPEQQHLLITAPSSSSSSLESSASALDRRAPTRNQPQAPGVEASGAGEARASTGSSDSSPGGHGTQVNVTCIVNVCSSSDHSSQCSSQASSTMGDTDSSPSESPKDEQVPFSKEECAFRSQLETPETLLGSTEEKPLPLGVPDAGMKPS
Experiment: flow cytometry competition, CHO cells with human TNFR2, antibody 0.1565 µg/mL, Biotin-hTNFα 0.5 µg/mL
MEASURED_ATTRIBUTE: percentage of tested cells that had Streptavidin signals (%)

# BINDER, READOUT_NUMBER
rows = [
    ("BC-1C3-IgG1 (antibody, V domains shown, Human VH/VL joined to the human IgG1 subtype) VH: QVQLVESGGGVVHPGKSLRLSCAASGFTFNIYGMHWVRQAPGKGLEWVALISYDGNDKYFADSVKGRFTISRDNSKNTLYLQMNSLRAEDTAVYYCAKAVDTAVVTFFDYWGQGTLVTVSS VL: EIVMTQSPVTLSVSPGERATLSCRASQSVSSNLAWYQQKPGQAPRLLIYSASTRATGIPARFSGSGSGTEFTLTISSLQSEDLAVYYCQQYSNWPFTFGPGTKVDIK", 74.3),
    ("BC-1B6-IgG1 (antibody, V domains shown, Human VH/VL joined to the human IgG1 subtype) VH: QVQLVESGGGVVQPGRSLRLSCAASGFTFSNFGMHWVRQAPGKGLEWVAVIWYEGSDKYYADSVKGRFTISRDNSKNTLYLQMNSLRAEDTAVYYCARDSSWGFLLYGMDVWGQGTTVTVSS VL: DVVMTQSPLSLPVTLGQPASISCRSSRSLEYSDGNTYLNWFQQRPGQSPRRLIYKVSNRDSGVPDRFSGSGSGTAFTLKISGVEAEDVGVYYCMQGTHWPPTFGGGTKVEIK", 82.7),
    ("BC-1F4-IgG1 (antibody, V domains shown, Human VH/VL joined to the human IgG1 subtype) VH: QVQLQQSGPGLVKPSQTLSLTCAISGDSVSSDSSAWNWIRQSPSRGLEWLGRTYYRSKWYNDYTVSVKSRITINPDTSKNQFSLQLNSVTPEDTAVYYCAREDGVGGTKDYFDYWGQGTLVTVSS VL: DIQMTQSPSSLSASVGDRVTITCQASQDISNYLNWYQQKPGKAPKLLIYDASNLETGVPSRFSGSGSGTDFTFTINSLQPEDFATYFCQQYDNLPITFGQGTRLEIK", 76.2),
    ("BC-1A8-IgG1 (antibody, V domains shown, Fully human VH/VL joined to the human IgG1 subtype, kappa light chain (RenMab mice)) VH: QVQLQQSGPGLVKPSQTLSLTCAISGDSVSSNSAAWNWIRQSPSRGLEWLGRTYYRSKWYNDYALSVKSRITINPETSKNQFSLQLNSVTPEDTAVYYCAREDGVGGTKDYFDYWGQGTLVTVSS VL: DIQMTQSPSSLSASVGDRVTITCQASQDIDNYLNWYQQKPGKAPKLLIYDVSNLEIGVPSRFSGSGSGTDFTFTISSLQPEDIATYYCQQYDNLPLTFGQGTRLEIK", 67.4),
]
